TESTED_ON: GST-caspase 8/His-caspase 8 (Homo sapiens)
Sequence (Q14790 1-184): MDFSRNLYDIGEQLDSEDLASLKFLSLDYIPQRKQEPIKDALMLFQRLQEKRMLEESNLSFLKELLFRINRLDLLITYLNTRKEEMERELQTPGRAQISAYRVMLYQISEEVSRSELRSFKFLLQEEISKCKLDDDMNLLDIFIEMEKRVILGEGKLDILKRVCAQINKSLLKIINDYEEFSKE
TEST_METHOD_NOTES: AlphaScreen counter-screen GST-caspase 8/His-caspase 8
Format: binding
CONDITION_DETAILS: counter-screen, bead-based assay, 1.4 μM–3.2 mM tested; read-out: EC50 for GST-caspase 8/His-caspase 8 interaction
Source text: Figure 2 3-(1H-indol-1yl)propan-1-amine (1), three benzimidazole derivatives (2–4), and spinacine (5) inhibit protein–protein interactions. […] To ask whether this inhibition was specific, we employed a counter-screening assay in which we assessed the ability of candidates to inhibit the binding of GST-caspase 8 to His-caspase 8; those that did were to be eliminated. […]
QUANTITY: EC50 (µM)

- NCCCn1ccc2ccccc21: 830

----------
TESTED_ON: GST-E6/His-caspase 8 (Human papillomavirus type 16, UniProt P03126)
Sequence (P03126 whole entry): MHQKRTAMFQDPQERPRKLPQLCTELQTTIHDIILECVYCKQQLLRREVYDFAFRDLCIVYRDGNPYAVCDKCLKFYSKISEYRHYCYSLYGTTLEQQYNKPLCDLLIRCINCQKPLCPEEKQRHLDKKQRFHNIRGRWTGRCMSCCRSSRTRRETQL
TEST_METHOD_NOTES: AlphaScreen bead-based binding assay GST-E6/His-caspase 8
The molecules listed here are annotated with their EC50.
QUANTITY: EC50 (µM)

* c1ccc2[nH]cnc2c1 [compound 2, benzimidazole] | 1040
* O=C(O)C1Cc2[nH]cnc2CN1 (stereo not drawn) [Spinacine (5)] | 17
* NCCCn1ccc2ccccc21 [compound 1] | 630
